Molecular target: TANK-2 enzyme (Homo sapiens)
Construct: made in house
Sequence (Q9H2K2 whole entry): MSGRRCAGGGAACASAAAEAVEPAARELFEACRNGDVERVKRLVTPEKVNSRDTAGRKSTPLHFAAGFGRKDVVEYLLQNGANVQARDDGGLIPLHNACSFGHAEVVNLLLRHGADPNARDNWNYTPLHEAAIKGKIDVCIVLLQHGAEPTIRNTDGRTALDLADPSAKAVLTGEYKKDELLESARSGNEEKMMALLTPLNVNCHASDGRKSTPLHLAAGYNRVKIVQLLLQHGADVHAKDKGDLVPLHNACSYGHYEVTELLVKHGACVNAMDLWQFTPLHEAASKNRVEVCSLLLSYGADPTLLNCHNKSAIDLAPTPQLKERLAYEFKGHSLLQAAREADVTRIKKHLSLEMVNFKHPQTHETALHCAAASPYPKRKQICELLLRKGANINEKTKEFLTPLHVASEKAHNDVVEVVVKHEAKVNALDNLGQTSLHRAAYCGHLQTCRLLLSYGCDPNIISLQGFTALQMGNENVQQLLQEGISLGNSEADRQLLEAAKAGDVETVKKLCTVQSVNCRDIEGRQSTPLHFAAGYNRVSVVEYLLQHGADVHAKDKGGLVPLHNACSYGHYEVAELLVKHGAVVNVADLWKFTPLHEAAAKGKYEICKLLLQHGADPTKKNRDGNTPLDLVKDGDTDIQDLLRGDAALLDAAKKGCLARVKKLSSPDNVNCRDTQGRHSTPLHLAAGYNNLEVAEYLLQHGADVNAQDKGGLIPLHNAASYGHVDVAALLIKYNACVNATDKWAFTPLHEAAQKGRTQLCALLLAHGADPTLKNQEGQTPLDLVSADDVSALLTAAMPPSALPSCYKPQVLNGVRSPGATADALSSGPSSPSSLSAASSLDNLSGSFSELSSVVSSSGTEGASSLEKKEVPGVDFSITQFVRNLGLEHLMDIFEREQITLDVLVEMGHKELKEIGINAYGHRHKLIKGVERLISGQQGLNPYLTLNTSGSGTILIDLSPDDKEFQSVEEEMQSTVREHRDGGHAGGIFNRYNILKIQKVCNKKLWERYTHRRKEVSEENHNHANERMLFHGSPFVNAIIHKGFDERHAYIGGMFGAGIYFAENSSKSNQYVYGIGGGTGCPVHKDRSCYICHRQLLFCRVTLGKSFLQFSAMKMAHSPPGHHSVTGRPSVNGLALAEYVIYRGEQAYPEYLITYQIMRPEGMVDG
Assay: In vitro Scintillation Proximity Assay (SPA) for TANK-2 inhibitory activity
Type: biochemical
Conditions: read-out: in vitro SPA assay TANK-2 pIC50 (converted)
test-readout: IC50 (nM)
Express the result in nM but write the number alone.

Consider the worked cases shown below.
{"columns": ["compound", "value-units", "IC50"],
 "data": [
  ["CCc1cc2ccc(C(C)(C#N)Cc3ccnc(Cl)c3)cc2[nH]c1=O (centres unmarked) [Compound 341]", "nM", 79.4],
  ["CCc1cc2ccc(C(C)(C#N)Cc3cc(N(C)C)nc(OC)n3)cc2[nH]c1=O (centres unmarked) [Compound 354]", "nM", 79.4],
  ["CCc1cc2ccc(C(C)(C#N)Cc3cccc(CCC#N)c3)cc2[nH]c1=O (centres unmarked) [Compound 165]", "nM", 79.4],
  ["CCc1cc2ccc(C(C)(C#N)Cc3cc(F)ccc3F)cc2[nH]c1=O (centres unmarked) [Compound 280]", "nM", 126],
  ["CCc1cc2ccc(C(C)(C#N)Cc3cc(OC)ccn3)cc2[nH]c1=O (centres unmarked) [Compound 373]", "nM", 501],
  ["CCc1cc2ccc(C(C)(C#N)Cc3ccc4c(c3)nnn4C)cc2[nH]c1=O (centres unmarked) [Compound 123]", "nM", 100],
  ["CCc1cc2ccc(C(C)(C#N)Cc3cc(N(C)C)nc(Cl)n3)cc2[nH]c1=O (centres unmarked) [Compound 364]", "nM", 100]
]}

Now let's try a different one.
Item under review: CCc1cc2ccc(C(C)(C#N)Cc3ccc(C)nc3)cc2[nH]c1=O (centres unmarked) [Compound 327] . Reported IC50?
631

* * *

Molecular target: TANK-2 enzyme (Homo sapiens)
Construct: made in house
Assay: In vitro Scintillation Proximity Assay (SPA) for TANK-2 inhibitory activity
Type: biochemical
Details: read-out: in vitro SPA assay TANK-2 pIC50 (converted)
Rule for this label: T means IC50 is less than 200 nM; F means IC50 is at least 200 nM.

Record excerpt, results attached:
{"columns": ["compound", "classification"],
 "data": [
  ["CCc1cc2ccc(C(C)(C#N)Cc3ccc(C)c(F)c3F)cc2[nH]c1=O (centres unmarked)", "T"],
  ["CCOc1cc(N(C)C)nc(CC(C)(C#N)c2ccc3cc(CC)c(=O)[nH]c3c2)n1 (centres unmarked)", "T"],
  ["CCOc1cccc(CC(C)(C#N)c2ccc3cc(CC)c(=O)[nH]c3c2)c1 (centres unmarked)", "F"],
  ["CCOC(=O)c1cccc(CC(C)(C#N)c2ccc3cc(CC)c(=O)[nH]c3c2)n1 (centres unmarked)", "F"],
  ["CCc1cc2ccc(C(C)(C#N)Cc3cccc(I)n3)cc2[nH]c1=O (centres unmarked)", "T"]
]}

Criterion: IC50 strictly below 200 nM. Is it met by CCc1cc2ccc(C(C)(C#N)Cc3cccc(C(=N)NO)c3)cc2[nH]c1=O (centres unmarked) ?
T

Please state whether IC50 is below 200 nM for Cc1cc2ccc(C(C)(C#N)C3CCc4ccc(C#N)cc43)cc2[nH]c1=O (centres unmarked)
F

Does this compound meet the criterion IC50 < 200 nM? CCc1cc2ccc(C(C)(C#N)Cc3nc(OC)cc(OC)n3)cc2[nH]c1=O (centres unmarked)
T

A record lists CCc1cc2ccc(C(C)(C#N)Cc3cccc4c3CCN4)cc2[nH]c1=O (centres unmarked) . Is its IC50 below 200 nM?
T

hey, is IC50 for CCc1cc2ccc(C(C)(C#N)Cc3cc(C#N)nc(C)n3)cc2[nH]c1=O (centres unmarked) lower than 200 nM or not?
T

Item CCc1cc2ccc(C(C)(C#N)Cc3cccc(NC)n3)cc2[nH]c1=O (centres unmarked) : IC50 beneath 200 nM, strictly?
T

Here's an entry: CCc1cc2ccc(C(C)(C#N)Cc3cccc(N4CCC(N(C)C)C4)n3)cc2[nH]c1=O (centres unmarked) . Is its IC50 below 200 nM?
F

Would you kindly verify if IC50 of CCc1cc2ccc(C(C)(C#N)Cc3cccc(CCC#N)c3)cc2[nH]c1=O (centres unmarked) [Compound 169] is strictly less than 200 nM?
F

In plain terms, does CCc1cc2ccc(C(C)(C#N)Cc3cccc(CO)c3)cc2[nH]c1=O (centres unmarked) come in under 200 nM for IC50?
T

Regarding CCc1cc2ccc(C(C)(C#N)Cc3cccc(NS(C)(=O)=O)c3)cc2[nH]c1=O (centres unmarked) , kindly confirm whether its IC50 is beneath 200 nM.
T
